Assayed system: recombinant human Meningioma Expressed Antigen 5 (MGEA5), also referred to as O-GlcNAcase (OGA) (Homo sapiens, UniProt O60502)
Construct: Full length OGA enzyme was purchased at OriGene (cat # TP322411); purchased OriGene TP322411
Sequence (O60502 1-916): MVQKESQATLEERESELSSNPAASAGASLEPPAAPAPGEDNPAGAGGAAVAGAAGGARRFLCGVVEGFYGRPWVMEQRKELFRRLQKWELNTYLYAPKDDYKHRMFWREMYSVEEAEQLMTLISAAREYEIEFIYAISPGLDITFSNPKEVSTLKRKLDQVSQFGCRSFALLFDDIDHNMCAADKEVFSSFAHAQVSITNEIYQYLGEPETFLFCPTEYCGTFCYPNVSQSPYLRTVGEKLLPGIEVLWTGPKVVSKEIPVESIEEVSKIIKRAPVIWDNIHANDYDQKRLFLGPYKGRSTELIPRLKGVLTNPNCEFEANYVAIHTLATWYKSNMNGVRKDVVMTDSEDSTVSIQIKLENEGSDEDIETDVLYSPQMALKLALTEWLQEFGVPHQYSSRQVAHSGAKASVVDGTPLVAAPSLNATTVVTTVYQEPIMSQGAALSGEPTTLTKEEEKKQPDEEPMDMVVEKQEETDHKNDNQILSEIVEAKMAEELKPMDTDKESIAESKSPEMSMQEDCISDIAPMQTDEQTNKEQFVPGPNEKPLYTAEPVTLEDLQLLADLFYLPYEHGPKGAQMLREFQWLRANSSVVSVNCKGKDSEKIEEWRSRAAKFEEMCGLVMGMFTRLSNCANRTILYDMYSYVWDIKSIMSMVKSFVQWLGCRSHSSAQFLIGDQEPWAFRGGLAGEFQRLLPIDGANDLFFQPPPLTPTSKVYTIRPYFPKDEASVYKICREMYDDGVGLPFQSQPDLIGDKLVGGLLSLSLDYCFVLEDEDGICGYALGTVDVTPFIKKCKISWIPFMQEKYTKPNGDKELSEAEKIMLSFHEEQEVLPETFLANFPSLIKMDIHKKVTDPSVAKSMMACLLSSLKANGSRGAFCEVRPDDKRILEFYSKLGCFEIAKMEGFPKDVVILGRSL
Assay protocol: OGA biochemical assay: inhibition of FM-GlcNAc hydrolysis, fluorescence; protocol A (10 nM OGA, 1 h) or protocol B (2 nM OGA, 6 h)
Test conditions: Enzymatic protocol B (2 nM OGA, 6 h)
Description: The assay is based on the inhibition of the hydrolysis of fluorescein mono-3-D-N-Acetyl-Glucosamine (FM-GlcNAc) (Mariappa et al. 2015, Biochem J 470:255) by the recombinant human Meningioma Expressed Antigen 5 (MGEA5), also referred to as O-GlcNAcase (OGA). […] The fluorescence of the latter can be measured at excitation wavelength 485 nm and emission wavelength 538 nm. An increase in enzyme activity results in an increase in fluorescence signal. […]
Measured quantity: Emax (%)
// return numeric value only (unit: %, not printed)

Observe how each entry below is paired with its result.
Compound	Measured result
Cc1cc(CC2CCCN(C(C)c3ccc4c(c3)OCCO4)C2)cc(C)n1 (racemic)	102
CC(=O)Nc1ncc(CN2CC[C@H](Cc3cc(C)cnn3)C2)s1	101

Req: Read the entry CC(=O)Nc1ncc(CN2CCC[C@H](Cc3cnc(C)c(C)n3)C2)s1 and write its reported Emax.
Resp: 100

Req: For the compound CC(=O)Nc1ncc(CN2CC[C@H](Cc3cc(C)nc(F)c3)C2)s1 , report Emax.
Resp: 103
